Listed here: items and their measured melting point.

CC1COC(=O)N1c1cc(-c2ncnc(Nc3cccc(Cl)c3)n2)ccn1 (stereo not given)	191 to 193 °C
CCC1Oc2cccc3nc4c(c(c23)NC1=O)CCCC4 (stereo not given)	182 to 183 °C
Oc1cc(Br)ccc1Br	71 to 74 °C

Fill blank: measured melting point of the compound FC(F)(F)c1ccc(-c2cc(C(F)(F)F)n3ncc(-c4nc(-c5cccnc5)no4)c3n2)cc1 is ____.
199 °C

Record request: melting point value, item COc1ccc(-c2nc(Sc3ccc(Cl)cc3)[nH]c2-c2ccc(OC)cc2)cc1
121 to 122 °C

Look up melting point: CC(C)OC(=O)NC1(c2ccccc2Cl)CCCCC1=O (stereo not given)
124 to 126 °C

So what does the record say about melting point for COc1ccc2c(c1)cc1cnc(Nc3ccc(N4CCOCC4)cc3OC)nn12 ?
152 to 164 °C

# lookup: melting point of O=C(CC1CCCCC1)c1c(O)c2cccnc2n(-c2ccccc2)c1=O
231 to 233 °C

Given the compound N#Cc1ccc2c(O)c(C(=O)NCCCCN3CCN(C(c4ccccc4)c4ccccc4)CC3)cnc2c1 , what is its reported melting point?
223 to 225 °C

Fill in the blank: the reported melting point of O=C(O)c1ccc(-n2c(SCc3ccc(Cl)cc3)nc3ccc(Cl)cc32)cc1 is ____.
265 to 266 °C

So what does the record say about melting point for CC(=O)OC1CCC2(C)C(=CC(=O)C3C2CCC2(C)C(C(C)CCCC(C)C)CCC32)C1 (stereo not given) ?
151 to 154 °C

Using the record for Cc1ccc(N2C(=O)C(O)=C(C(=O)c3ccc(C(C)C)cc3)C2c2ccc(OC(C)C)cn2)nn1 (stereo not given) , report its melting point.
243 to 245 °C

Value lookup for melting point; key = NOP(=O)(c1ccccc1)c1ccccc1
104 °C

For the compound CC1(c2ccc(N)c(C(=O)c3ccccc3)c2)OCCO1 , what melting point is on record?
108 to 111 °C

Entry Cc1cc2nc(C3(c4ccc(S(N)(=O)=O)cc4)C=C(C(F)(F)F)NN3)sc2cc1F (stereo not given) has what melting point?
224 to 225 °C

Item CN1CCC(Oc2ccc(NC(=O)n3ccc4cc(Oc5cc(CC(N)=O)ncn5)ccc43)cc2C(F)(F)F)CC1 has what recorded melting point?
200 to 201 °C

Entry under review: CCNC(=O)c1ccc2cc(-c3csc(N(C)S(=O)(=O)c4ccccc4)n3)c(=O)[nH]c2c1 . Reported melting point?
> 300 °C

Looking for the measured melting point of NC(=O)c1c(C(=O)O)cccc1[N+](=O)[O-] , can you help?
188 °C

What value of measured melting point is listed for CCOC(=O)c1cc(N(C)S(C)(=O)=O)c(C)nc1C(=O)OCC ?
90 to 93 °C

May I ask what melting point has been recorded for O=C(NCc1cccnc1)c1ccc2n1Cc1ccccc1N(C(=O)COc1ccc(Cl)cc1)C2 ?
169 to 171 °C

###

# key: entry, value: melting point

# count of solved cases: 2
Cc1cc2c(cc1C(=O)CO)C(C)(C)CC(C)C2(C)C (stereo not drawn)	81 to 82 °C
ON=C1CCCc2c1c1cccc3c1n2CC3	271 to 272 °C

Query compound follows.
Could you tell me which melting point is on file for COC(=O)c1snc(-c2ccc(OC)cc2)c1N ?
129 to 131 °C
